Form field: Kd (one value per entry).
biological target: alpha-synuclein fibrils, P37840; test: SPR, captured mAb; conditions: remark: other sources report otherwise
Give the value, in units of nM, as a plain number.

ACI-7067-1108H1-Ab1 (antibody, V domains shown) VH: EVKLVESGGGLVQPGGSMKLSCTASGFTFSDAWMNWVRQSPEKGLEWVAEIRNKAHNHATNYAESVKGRFTISGDDSKSSVYLQMNNLRAEDTGIYYCTIYSFWGQGTLVTVSA VL: SIVMTQTPKFLLVSAGDRVTITCKASQSVTNYVAWYHQKPGQSPKLLIYSASNRYSGVPDRFTGSGYGTDFTFTINTVQTEDLAVYFCQQDYRIPYTFGGGTKLEIK ... 14.3

Now consider the entry below.
What value of Kd has been reported for the following binder? ACI-7079-2602G4-Ab4 (antibody, V domains shown) VH: EVQLVESGGGLVQPKGSLKLSCAASGFTFKTYAMHWVRQAPGKGLEWVARIRSKGSDYATYYADSVKDRFTISRDDSQSMLYLQMNNLKTEDTAMYFCVRGGADSWFAYWGQGTLVTVST VL: QIVLTQSPAIMSASPGERITMTCTASSSVSYMHWYQQKSGTSPKRWIYDTSKLASGVPARFSGSGSGASYTLTISSMEAEDAATYYCQQWNRNPPTFGGGTQLAIK 18.9
